Source of measurements: patent US20180289655A1

- Measurement protocol: Solubility of DMF in aqueous media at 37° C.
- Type: physicochemical
- Recorded conditions: pH 10 borate buffer, pH 10, aqueous buffer, thermodynamic from solid, pH 10 Borate Buffer, read-out: Solubility Description
Structures can show the parent of a compound that is named as a salt.
Test readout: solubility at 24 h

**Query** Provide only the value of recorded solubility at 24 h for COC(=O)/C=C/C(=O)OC [DMF, dimethyl fumarate]
**Result** 1000 to 10000 µg/mL

* * *

- Measurement protocol: 24-hour equilibrium solubility of DMF in water
- Format: physicochemical
- Recorded conditions: thermodynamic from solid, ambient temperature
- Experimental: Samples were then filtrated at the measuring temperatures through a 0.2 μm filter unit, and the concentrations of the filtrate were determined using HPLC. The solids in equilibrium were confirmed, by FT-Raman technique, to be the same form as the starting material.
Structures can show the parent of a compound that is named as a salt.
Test readout: solubility at 24 h (µg/mL)
Answer in µg/mL, number only, no unit symbol.

**Query** Provide only the value of recorded solubility at 24 h for COC(=O)/C=C/C(=O)OC [DMF, dimethyl fumarate]
**Result** 2700

* * *

- Measurement protocol: Solubility of DMF in aqueous media at 37° C.
- Type: physicochemical
- Recorded conditions: pH 8 borate buffer, pH 8, aqueous buffer, thermodynamic from solid, pH 8 Borate Buffer, read-out: Solubility Description
Structures can show the parent of a compound that is named as a salt.
Test readout: solubility at 24 h

**Query** Provide only the value of recorded solubility at 24 h for COC(=O)/C=C/C(=O)OC [DMF, dimethyl fumarate]
**Result** 1000 to 10000 µg/mL

* * *

- Measurement protocol: Solubility of DMF in aqueous media at 37° C.
- Assay type: physicochemical
- Recorded conditions: simulated gastric fluid (SGF, without pepsin), pH 6.9, simulated gastric fluid, thermodynamic from solid, SGF (without pepsin), pH 6.90, read-out: Solubility
Counter-ions that a name gives are not always drawn.
Test readout: solubility at 24 h (µg/mL)
Answer in µg/mL, number only, no unit symbol.

**Query** Provide only the value of recorded solubility at 24 h for COC(=O)/C=C/C(=O)OC [DMF, dimethyl fumarate]
**Result** 2950

* * *

- Measurement protocol: Solubility of DMF in HPbCD, Captisol, saline and D5W at ambient temperature
- Assay type: physicochemical
- Recorded conditions: pH 4.3, aqueous with cosolvent or surfactant or cyclodextrin, thermodynamic from solid, 5% HPbCD, pH 4.30
Counter-ions that a name gives are not always drawn.
Test readout: solubility at 24 h (µg/mL)
Answer in µg/mL, number only, no unit symbol.

**Query** Provide only the value of recorded solubility at 24 h for COC(=O)/C=C/C(=O)OC [DMF, dimethyl fumarate]
**Result** 4030

* * *

- Measurement protocol: MMF exposure in plasma and tissues after DMF PO/IV or MMF IV (LC-MS/MS)
- Assay type: in vivo, C57BL/6 mice
- Recorded conditions: C57BL/6, mouse, brain; Study 2, MMF IV 27.08 mg/kg, 10 minutes; read-out: Brain to plasma MMF ratio (tissue [MMF]/plasma [MMF]*100)
Where a name gives a salt, the structure may show the parent alone.
Test readout: Kp at 10 min
// no unit, no text: just the number

**Query** Provide only the value of recorded Kp at 10 min for COC(=O)/C=C/C(=O)O [MMF, monomethyl fumarate]
**Result** 7.2
